Where these numbers come from: PubChem BioAssay AID2551

biological target: Nuclear receptor ROR-gamma (Mus musculus) (UniProt P51450); test: qHTS for inhibitors of ROR gamma transcriptional activity; conditions: Drosophila S2 Gal4-RORgamma UAS-luciferase reporter, 20 h; series mostly up to 53.6 µM; also: nearly all actives have a fitted effect of over 60% in size
Sequence (P51450 whole entry, looked up, the tested form may be a part): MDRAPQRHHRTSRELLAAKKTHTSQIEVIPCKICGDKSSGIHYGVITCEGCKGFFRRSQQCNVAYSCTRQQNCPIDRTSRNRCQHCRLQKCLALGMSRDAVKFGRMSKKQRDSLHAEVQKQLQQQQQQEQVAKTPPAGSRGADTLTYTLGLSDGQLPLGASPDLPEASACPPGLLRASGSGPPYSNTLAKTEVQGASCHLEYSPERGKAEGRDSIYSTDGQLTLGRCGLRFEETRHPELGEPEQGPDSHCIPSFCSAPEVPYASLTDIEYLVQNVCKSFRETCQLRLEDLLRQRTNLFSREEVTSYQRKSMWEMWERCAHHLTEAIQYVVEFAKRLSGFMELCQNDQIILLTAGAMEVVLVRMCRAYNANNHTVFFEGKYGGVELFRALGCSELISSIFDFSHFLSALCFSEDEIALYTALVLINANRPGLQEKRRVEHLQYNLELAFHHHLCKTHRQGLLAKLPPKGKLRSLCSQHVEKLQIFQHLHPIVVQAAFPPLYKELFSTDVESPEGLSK
Hit rate of the full screen: of about 310,000 compounds, about 17,000 (5.5%) were called active. Another 11% or so got no clear call; they are omitted. Calls follow the shape of the dose curve; as a rule, active = well fitted inhibition curve with a large enough effect; inconclusive = small, poorly fitted or top-dose-only effect, or effect the other way; inactive = no such curve, though single readings can be large or run the other way. Many of the other results were omitted from the sample, so actives are more common in it than they were.
Outcomes you can answer with include only these: 1 (active), 0 (inactive)

Identify the outcome logged in this assay for the compound shown: CCOC(=O)Nc1sc(C(=O)N(C)C)c(C)c1C(=O)OCC
0

Identify the outcome logged in this assay for the compound shown: O=C(Nc1cn(-c2ccccc2)nc1-c1ccccc1)c1ccccc1
0

Identify the outcome logged in this assay for the compound shown: CCOC(=O)c1c(NC(=O)CCl)sc(C(=O)N(CC)CC)c1C
1

Identify the outcome logged in this assay for the compound shown: CC(C)c1c(C(=O)N/N=C/c2ccccc2C(=O)O)nnn1-c1nonc1N
0

Identify the outcome logged in this assay for the compound shown: COC(=O)c1cn(-c2ccccc2)nc1-c1cccnc1
0

Identify the outcome logged in this assay for the compound shown: O=C(NNC(=S)Nc1ccc(F)cc1)[C@H]1C[C@@H]1c1ccccc1
0

Identify the outcome logged in this assay for the compound shown: CCOC(=O)c1sc(NC(=O)CCN2CCOCC2)c(C(=O)OCC)c1C
0

Identify the outcome logged in this assay for the compound shown: COC(=O)N(NC(=O)C(O)(C(C)C)C(C)C)c1ccccc1
0

Identify the outcome logged in this assay for the compound shown: COc1ccc(OCC(O)CN(C)C(=O)C(C)Oc2ccccc2)cc1 (stereo unspecified)
0

Identify the outcome logged in this assay for the compound shown: O=C(NNC(=S)NC(=O)c1cn(-c2ccccc2)nc1-c1ccccc1)c1ccncc1
1

Identify the outcome logged in this assay for the compound shown: Cc1ccc(NC(=O)C2CC2c2ccccc2)cc1 (stereo unspecified)
0
